- test system: HLA-A*02:02
- test description: IEDB peptide-MHC binding, purified MHC/competitive/radioactivity; filed as Kd, often an IC50 or EC50 that approximates it; bounds were set here for any values at or beyond the usual limits of such assays
- experimental setup: source organism: Vaccinia virus Copenhagen
quantity kind: Kd (µM)
Just the number please, in µM, no unit attached.

LIAGIILLIL = 0.141

Proceeding to the next sequence to report its Kd.
q: Reported Kd for `FVDTMSIYI` : what is it?
a: 0.0207

* * *

- test system: HLA-B*15:01
- test description: IEDB peptide-MHC binding, purified MHC/direct/fluorescence; filed as Kd, often an IC50 or EC50 that approximates it; bounds were set here for any values at or beyond the usual limits of such assays
- experimental setup: source organism: Giardia lamblia ATCC 50803
quantity kind: pKd
Scale: negative log10 of molar concentration, which is what pKd denotes.

GMLSSLHTL = 6.59

q: # query: pKd of entry `ITFHNQRDF`
a: 6.83

* * *

- test system: HLA-B*53:01
- test description: IEDB peptide-MHC binding, purified MHC/competitive/radioactivity; filed as Kd, often an IC50 or EC50 that approximates it; bounds were set here for any values at or beyond the usual limits of such assays
- experimental setup: source organism: Mammarenavirus choriomeningitidis
quantity kind: pKd
To interpret pKd, take it as minus log10 of a concentration measured in moles per litre.

LPHIIDEVM = 6.07

Attention now shifts to the item below.
q: If you can, please state the reported pKd value of `CPFLFLMLL` .
a: 5.68

* * *

- test system: HLA-A*02:03
- test description: IEDB peptide-MHC binding, purified MHC/competitive/fluorescence; filed as Kd, often an IC50 or EC50 that approximates it; bounds were set here for any values at or beyond the usual limits of such assays
- experimental setup: source organism: Cryptosporidium parvum Iowa II
pKd: −log10 of the molar value.
quantity kind: pKd

q: Could you share which pKd value was measured for `RLKHIFLIF` ?
a: ≤ 4.70

* * *

pKd: recorded values
- test system: HLA-A*33:01
- test description: IEDB peptide-MHC binding, purified MHC/competitive/radioactivity; filed as Kd, often an IC50 or EC50 that approximates it; bounds were set here for any values at or beyond the usual limits of such assays
- experimental setup: source organism: Dengue virus 2 Jamaica/1409/1983
// pKd: -log10(molar conc.)

q: Dear colleague, I am looking for the recorded pKd of the following sequence: `LGMMVLKIVR`
a: 5.72

q: Would you mind telling me what pKd value was observed for `AARGYISTR` ?
a: 6.50

* * *

- test system: HLA-A*26:01
- test description: IEDB peptide-MHC binding, purified MHC/competitive/fluorescence; filed as Kd, often an IC50 or EC50 that approximates it; bounds were set here for any values at or beyond the usual limits of such assays
- experimental setup: source organism: Salmonella enterica subsp. enterica serovar Typhi
quantity kind: Kd (µM)
Hi! Could you send only the number? It should be in µM, unit omitted.

q: Dear colleague, I am looking for the recorded Kd of the following sequence: `MVEASGGRY`
a: 1.42

* * *

- test system: HLA-A*32:01
- test description: IEDB peptide-MHC binding, purified MHC/competitive/radioactivity; filed as Kd, often an IC50 or EC50 that approximates it; bounds were set here for any values at or beyond the usual limits of such assays
- experimental setup: source organism: Dengue virus 4 Philippines/H241/1956
quantity kind: Kd (nM)
Report as a plain number; the unit nM is understood.

q: For the sequence shown here, `KTKRILPSI` , give the reported Kd.
a: 125

* * *

- test system: HLA-A*26:01
- test description: IEDB peptide-MHC binding, purified MHC/direct/fluorescence; filed as Kd, often an IC50 or EC50 that approximates it; bounds were set here for any values at or beyond the usual limits of such assays
- experimental setup: source organism: Salmonella enterica
pKd: −log10 of the molar value.
quantity kind: pKd

q: Identify the measured pKd of `ALMRWRHPR` for HLA-A*26:01.
a: ≤ 4.70

* * *

- test system: HLA-C*08:02
- test description: IEDB peptide-MHC binding, purified MHC/direct/fluorescence; filed as Kd, often an IC50 or EC50 that approximates it; bounds were set here for any values at or beyond the usual limits of such assays
- experimental setup: source organism: Mycobacterium tuberculosis C
quantity kind: Kd

q: For `YLDAIQQPV` , what is its reported Kd?
a: ≤ 1 nM

* * *

- test system: HLA-A*02:01
- test description: IEDB peptide-MHC binding, purified MHC/competitive/fluorescence; bounds were set here for any values at or beyond the usual limits of such assays
- experimental setup: source organism: Vaccinia virus WR
# Lookup of reported IC50 keyed by entry
Your answer should be a plain number; it is taken to be in µM.

// solved cases for IC50 follow
EILNTIQFM = 7.58
FMSNGEHVP = 57.6

Moving on to the next sequence.
q: For the sequence `GLYKSINVE` , what IC50 is on record?
a: 39.5

* * *

- test system: HLA-A*26:01
- test description: IEDB peptide-MHC binding, purified MHC/direct/fluorescence; filed as Kd, often an IC50 or EC50 that approximates it; bounds were set here for any values at or beyond the usual limits of such assays
- experimental setup: source organism: Vibrio cholerae
pKd: −log10 of the molar value.
quantity kind: pKd

q: Please report the recorded pKd for `FLHPKHWGT` .
a: ≤ 4.70

* * *

- test system: HLA-A*30:01
- test description: IEDB peptide-MHC binding, purified MHC/competitive/radioactivity; filed as Kd, often an IC50 or EC50 that approximates it; bounds were set here for any values at or beyond the usual limits of such assays
- experimental setup: source organism: Mammarenavirus brazilense
Reported Kd is given for each of the following sequences.

q: Which measured Kd belongs to `LINERDYSRY` , tested on HLA-A*30:01?
a: ≥ 70.4 µM

q: Query Kd on HLA-A*30:01 for `LINLTTIAY`
a: 9.39 µM

* * *

- test system: HLA-A*68:02
- test description: IEDB peptide-MHC binding, purified MHC/direct/fluorescence; filed as Kd, often an IC50 or EC50 that approximates it; bounds were set here for any values at or beyond the usual limits of such assays
- experimental setup: source organism: Vibrio cholerae
quantity kind: Kd

q: Please give the measured Kd for this sequence: `REVFDYLLP`
a: ≥ 20 µM

* * *

- test system: HLA-B*15:01
- test description: IEDB peptide-MHC binding, purified MHC/direct/fluorescence; filed as Kd, often an IC50 or EC50 that approximates it; bounds were set here for any values at or beyond the usual limits of such assays
- experimental setup: source organism: Vibrio parahaemolyticus AQ3810
quantity kind: Kd (nM)
Record the value in nM, omitting the unit from your answer.

q: Reported Kd for HLA-B*15:01, given `KVAQAAAAM` ?
a: 29

* * *

- test system: HLA-A*69:01
- test description: IEDB peptide-MHC binding, purified MHC/direct/fluorescence; filed as Kd, often an IC50 or EC50 that approximates it; bounds were set here for any values at or beyond the usual limits of such assays
- experimental setup: source organism: Coxiella burnetii
quantity kind: Kd

q: Give recorded Kd with HLA-A*69:01 for the following sequence: `EEMPLVWDL`
a: ≥ 20 µM

* * *

- test system: HLA-A*31:01
- test description: IEDB peptide-MHC binding, purified MHC/competitive/radioactivity; filed as Kd, often an IC50 or EC50 that approximates it; bounds were set here for any values at or beyond the usual limits of such assays
- experimental setup: source organism: Vaccinia virus WR
quantity kind: Kd (µM)
Field format: number, assumed µM, no unit text.

WLSMTDEMR = 1.79
TQFNFNGHTY = 4.06

q: Record lookup: for HLA-A*31:01, what Kd belongs to `YIFPGDKTSY` ?
a: 18.7

q: Give Kd (HLA-A*31:01) of the following sequence: `SQIFNIISY`
a: 0.915

q: Find the measured Kd: item `DFDNLIGVR` , target or system HLA-A*31:01.
a: 8.03

q: Please tell me: Kd of `AAKYVEHDPR` , system HLA-A*31:01?
a: 0.171

q: Hi! What's the reported Kd for `NILGGVLHTK` on HLA-A*31:01?
a: 1.82

q: # query: Kd | item `HIVCSKTVK` | system: HLA-A*31:01
a: 0.623

q: Return Kd measured with HLA-A*31:01 given this sequence: `PFKVINLPK`
a: 6.36

q: Can you look up Kd on HLA-A*31:01 for `KSDNIINIGY` ?
a: 3.87

q: For the record `TIPIGMQFDK` , what value of Kd is listed for HLA-A*31:01?
a: 17.4

q: What Kd appears in the records for this sequence with HLA-A*31:01? `SSVQLSNNKY`
a: 2.87

* * *

- test system: HLA-B*51:01
- test description: IEDB peptide-MHC binding, purified MHC/competitive/radioactivity; filed as Kd, often an IC50 or EC50 that approximates it; bounds were set here for any values at or beyond the usual limits of such assays
- experimental setup: source organism: Dengue virus 2 Jamaica/1409/1983
Measured pKd by item
The value called pKd is obtained by taking minus log10 of the concentration in mol/L.

Solved entries:
LALLAAFKV = 6.09
HPGFTIMAAI = 5.24
IPKNFAGPV = 5.51

Consider now this further sequence.
q: Quick one: pKd of `LPVWLAYRVA` ?
a: 5.30
